biological target: GST-tagged recombinant human TYRO3 kinase domain (Homo sapiens, UniProt Q06418); construct: GST-tagged recombinant human TYRO3 kinase domain; experiment: TYRO3 Enzyme Assay (LanthaScreen Eu Kinase Binding); settings: averaged IC50; TYRO3 5 nM; 60-minute incubation at 22° C.; TR-FRET
Sequence (Q06418 518-790 limits assumed): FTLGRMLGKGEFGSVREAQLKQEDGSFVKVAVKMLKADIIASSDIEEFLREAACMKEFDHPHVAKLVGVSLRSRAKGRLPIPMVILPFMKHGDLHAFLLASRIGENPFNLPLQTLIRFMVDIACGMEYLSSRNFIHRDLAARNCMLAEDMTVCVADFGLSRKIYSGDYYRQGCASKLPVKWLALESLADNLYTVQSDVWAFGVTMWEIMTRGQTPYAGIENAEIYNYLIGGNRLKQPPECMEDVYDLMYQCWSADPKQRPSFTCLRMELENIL
pIC50: −log10 of the molar value.
Decide by pIC50: equal to or exceeding 8 means 1, less means -1.

// known answers, use as guide
structure.notation	answer.label
COc1cc2nc(C)cc(Oc3ccc(NC(=O)c4cn(C(C)C)cc(-c5ccc(F)cc5)c4=O)nc3)c2cc1OC	-1
CCOc1ccc2c(Oc3ccc(NC(=O)c4cn(C(C)C)cc(-c5ccc(F)cc5)c4=O)nc3)ccnc2c1	-1
COc1cc2nccc(Oc3ccc(NC(=O)c4cn(CCN(C)C)cc(-c5ccc(F)cc5)c4=O)nc3)c2cc1OC	1

Please check the record "COc1cc2nccc(Oc3ccc(NC(=O)c4cn(C(C)C)c(C(C)C)c(-c5ccc(F)cc5)c4=O)nc3)c2cc1OC" and state if its pIC50 is at or above 8.
-1

Identify whether the reported pIC50 of the following molecule is 8 or greater: "CCn1cc(C(=O)Nc2ccc(Oc3ccnc4ccc(OC)cc34)cn2)c(=O)c(-c2ccc(F)cc2)c1"
-1

Hey, just so you know, these numbers are from patent US20200216416A1.
